assay: gradient 5% acetonitrile 3 min, to 50% in 2 min, to 85% in 15 min, held 3 min, 100 µL/min
experimental.context: column: Zorbax Extend-C18 2.1 x 50 mm; eluents: water / acetonitrile, 0.1% formic acid
value.kind: RP-LC retention time (s)

Below: 5 molecules and their reported RP-LC retention time.
>  <molecule>
CCOC(=O)c1nc(Nc2cc(Cl)ccc2C)c2ccccc2n1

>  <RP-LC retention time / s>
929

$$$$
>  <molecule>
CCOC(=O)Cn1c(C2CCCN2C(=O)CC)nc2ccccc21 (centres undefined)

>  <RP-LC retention time / s>
613

$$$$
>  <molecule>
O=C(Cn1nc2c(Oc3cccc(F)c3)nccn2c1=O)Nc1ccccc1C(F)(F)F

>  <RP-LC retention time / s>
870

$$$$
>  <molecule>
O=C(c1cc(=O)c2ccccc2o1)N1CCC(c2nnc(-c3ccc(F)cc3)o2)CC1

>  <RP-LC retention time / s>
746

$$$$
>  <molecule>
O=C(Cc1ccsc1)N1CCC(Nc2ncnc3c2CCC3)CC1

>  <RP-LC retention time / s>
673

$$$$

(I) Cc1nc(-c2ccc(C(F)(F)F)cc2)ncc1C(=O)NCc1ccco1
(II) CCn1c(=O)c2ccn(CC(=O)NCc3ccc(C)cc3)c2n(CC)c1=O
Between the two listed entries I and II , which has its RP-LC retention time at the higher number? I would appreciate it if you answered with the label of your choice.
I
